experiment_summary: Ex vivo biodistribution in Daudi xenograft-bearing mice
experimental_setup: male, NOD.Cg-Rag1tm1Mom Il2rgtm1Wjl/SzJ (NRG), mouse, pancreas, iv, total radioactivity, Pancreas uptake, 1 h p.i. blocked with LY2510924, mean
Where a SMILES comes first, the peptide text is derived from it. Side-chain parts run from the residue outwards. [ ]: non-standard residue; d: D form. The star is where a group is joined. DOTA = O=C(O)CN1CCN(CC(=O)O)CCN(CC(=O)*)CCN(CC(=O)O)CC1; 2Nal = N[C@@H](Cc1ccc2ccccc2c1)C(=O)O; dNMeOrn = CN[C@H](CCCN)C(=O)O; 4Amb = NCc1ccc(C(=O)O)cc1
endpoint_label: tissue uptake at 1 h (%ID/g)
Give your result in %ID/g as a bare value.

-- ask Dear colleague, I am looking for the recorded tissue uptake at 1 h of the following molecule: CN1C(=O)[C@@H](Cc2ccc(O)cc2)NC(=O)CNC(=O)[C@H](Cc2ccc3ccccc3c2)NC(=O)[C@H](CCCNC(=N)N)NC(=O)[C@H]1CCCNC(=O)c1ccc(CNC(=O)CN2CCN(CC(=O)O)CCN(CC(=O)O)CCN(CC(=O)O)CC2)cc1 [[68Ga]Ga-Pentixafor, metal not drawn] (cyclo([dY][dNMeOrn]([4Amb-DOTA])R[2Nal]G))
-- reply 0.25
